Measured inhibition, listed per entry.
- Assayed System: RAF proto-oncogene serine/threonine-protein kinase (Homo sapiens);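 further: values are mean CRAF kinase inhibition from profiling of the GSK Published Kinase Inhibitor Set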
- Experimental Conditions: at 0.1 µM
Write down the numeric answer in % and omit the unit.

[O-][S+]1CCN(Cc2ccc(-c3ccc4ncnc(Nc5ccc(OCc6cccc(F)c6)c(Cl)c5)c4c3)o2)CC1	-0.6
COc1ccc(-c2cc3c(N)ncnc3o2)cc1	1.23
COc1cc(/C=N/Nc2ncnc3[nH]ncc23)ccc1O	4.83
COc1cccc(-n2ncc3c(N/N=C/c4ccc(F)cc4)ncnc32)c1	0.27
COc1cc2ncn(-c3cc(OCc4ccccc4C(F)(F)F)c(C(=O)N(C)C)s3)c2cc1OC	0.38
COc1cc(N2CCN(C(C)C)CC2)ccc1Nc1nc(Nc2ccc(F)cc2C(N)=O)c2cc[nH]c2n1	0.33
CCOc1ccc2c(-c3ccnc(Nc4cccc(C(F)(F)F)c4)n3)cnn2n1	-2.28
NS(=O)(=O)c1ccc(Nc2ncc(-c3ccccc3)o2)cc1	-0.15
Nc1nc(-c2ccc(F)cc2)c(-c2ccc3ncccc3n2)s1	0.53

**Query** Recorded inhibition of CCc1nn2ncccc2c1-c1ccnc(NC2CC2)n1 , please.
**Result** 0.39

====

- Assayed System: MAP/microtubule affinity-regulating kinase 3 (Homo sapiens) (UniProt P27448);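 further: mean percent inhibition of MARK3 kinase activity, measured within the GSK PKIS screening panel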
- Sequence (P27448 whole entry, looked up): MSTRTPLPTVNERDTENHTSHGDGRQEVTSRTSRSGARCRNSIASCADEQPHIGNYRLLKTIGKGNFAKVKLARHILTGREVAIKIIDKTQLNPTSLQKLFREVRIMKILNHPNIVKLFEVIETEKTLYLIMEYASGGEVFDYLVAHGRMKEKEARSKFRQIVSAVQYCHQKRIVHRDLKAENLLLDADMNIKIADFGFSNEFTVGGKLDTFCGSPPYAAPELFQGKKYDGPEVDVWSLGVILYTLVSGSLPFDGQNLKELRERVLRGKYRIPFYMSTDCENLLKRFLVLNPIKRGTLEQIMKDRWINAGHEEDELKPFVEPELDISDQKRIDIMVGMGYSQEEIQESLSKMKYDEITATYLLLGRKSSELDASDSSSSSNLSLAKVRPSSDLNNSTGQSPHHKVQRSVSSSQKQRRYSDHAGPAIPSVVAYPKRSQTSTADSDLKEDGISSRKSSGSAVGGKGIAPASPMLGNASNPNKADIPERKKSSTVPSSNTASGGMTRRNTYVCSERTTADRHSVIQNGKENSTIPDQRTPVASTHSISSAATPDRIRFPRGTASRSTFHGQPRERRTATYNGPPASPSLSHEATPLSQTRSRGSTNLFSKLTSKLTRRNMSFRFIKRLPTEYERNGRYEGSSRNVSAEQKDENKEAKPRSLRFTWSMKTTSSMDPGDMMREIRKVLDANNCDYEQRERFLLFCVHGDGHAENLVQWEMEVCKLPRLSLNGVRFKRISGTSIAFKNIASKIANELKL
- Experimental Conditions: at 0.1 µM
Reported Endpoint: inhibition (%)
Write down the numeric answer in % and omit the unit.

Below: 4 compounds and their reported inhibition.
COC(=O)Nc1nc2ccc(Oc3ccc(NC(=O)Nc4cccc(Cl)c4)cc3)cc2[nH]1	0.27
CNC(=O)c1cc(-c2ccc(F)cc2)cc(-c2ccc(S(=O)(=O)N3CCCC3)cc2)c1N	1.73
COc1ccc2[nH]c3c4[nH]c5ccc(OC)cc5c4c4c(c3c2c1)C(=O)NC4=O	3.92
CCn1c(-c2nonc2N)nc2c(C#CC(C)(C)O)nc(OC[C@H](N)c3ccccc3)cc21	4.68

Please look at the following compound next.
**Query** Recorded inhibition of Nc1ncc(-c2cccc(S(N)(=O)=O)c2)c2scc(-c3ccc(F)c(Cl)c3)c12 , please.
**Result** -0.65

====

- Assayed System: Casein kinase I isoform gamma-1 (Homo sapiens);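 further: reported as mean inhibition, part of GSK PKIS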
- Experimental Conditions: at 0.1 µM
Reported Endpoint: inhibition (%)
Write down the numeric answer in % and omit the unit.

Below: 3 molecules and their reported inhibition.
Nc1nc(-c2ccc(F)cc2)c(-c2ccc3ncccc3n2)s1	4.29
CC(C)(CO)CNC(=O)c1ccc2c(c1)/C(=N/Nc1ccc(S(N)(=O)=O)cc1)C(=O)N2	0.88
Cc1cccc2c1NC(=O)/C2=N\Nc1ccc(S(N)(=O)=O)cc1	2.88

**Query** Recorded inhibition of COC(=O)Nc1nc2ccc(S(=O)(=O)c3ccc(NC(=O)Nc4cc(C(F)(F)F)ccc4F)cc3)cc2[nH]1 , please.
**Result** 2.34

**Query** Here is the next molecule: CNC(=O)c1cc(-c2ccc(F)cc2)cc(-c2ccc(S(=O)(=O)N3CCCC3)cc2)c1N
**Result** 2.3

**Query** Here is the next molecule: c1cc(-c2cnn3nc(N4CCOCC4)ccc23)nc(NC2CC2)n1
**Result** 3.42

**Query** Here is the next molecule: CN1CCC(n2cnc(-c3ccc(F)cc3)c2-c2ccnc(N)n2)CC1
**Result** 1.88

**Query** Here is the next molecule: COc1cc2ncn(-c3cc(OCc4ccccc4C(F)(F)F)c(C(=O)N(C)C)s3)c2cc1OC
**Result** -0.13

From: ChEMBL document CHEMBL1961873
